pIC50: −log10 of the molar value.
Assay read-out pIC50 on Cyclin-dependent kinase 2 (Homo sapiens, UniProt P24941); records merged from the literature.

Some entries whose results are on file:
[
  {
    "compound": "N#Cc1cc2cnc(Nc3ccc4c(c3)CCNC4)nc2n(C2CCCC2O)c1=O (centres unmarked)",
    "value-observed": 6.75
  },
  {
    "compound": "NS(=O)(=O)c1ccc(NC=C2C(=O)Nc3ncc(-c4ccccc4)cc32)cc1",
    "value-observed": "5.00 to 6.00"
  },
  {
    "compound": "Cc1nc2c(n1C(C)C)-c1nc(Nc3ccc(N4CCNCC4)cn3)ncc1CC2",
    "value-observed": 6.09
  },
  {
    "compound": "CN1CCN(c2ccc(Nc3cc4c(C5CCCC5)c(C#N)sc4cn3)nc2)CC1",
    "value-observed": 8.48
  },
  {
    "compound": "O=C(NC[C@@H]1CCNC1)c1ccc(C(=O)Nc2ccc(-n3cncn3)cc2)s1",
    "value-observed": "≤ 4.40"
  },
  {
    "compound": "O=C(NCCN1CCCCC1)c1ccc(C(=O)Nc2ccc(-n3cncn3)cc2)s1",
    "value-observed": "≤ 4.40"
  }
]

Parameter requested: pIC50. Apply to each item below.
1. C[C@@]1(O)CCC[C@H]1n1c(=O)c(C#N)cc2cnc(NC3CCN(S(C)(=O)=O)CC3)nc21
2. Cn1ccc(S(=O)(=O)N2CCC(Nc3ncc4cc(C#N)c(=O)n(C5CCCC5)c4n3)CC2)n1
3. O=C1Nc2ncc(-c3ccco3)cc2C1=CNc1ccc2cn[nH]c2c1
4. CN1CCN(c2ccc(Nc3nccc(-c4cnn5ncccc45)n3)cc2Cl)CC1
5. O=C(Nc1ccc(-n2cncn2)cc1)c1ccc(C(=O)Nc2ccc3c(c2)C(=O)OC3)s1
6. CCOC(=O)c1cnc2c(c1)C(=CNc1ccc(S(N)(=O)=O)cc1)C(=O)N2
7. O=C(Nc1ccc(-n2cncn2)cc1)c1ccc(C(=O)Nc2cc(F)ccc2F)s1

Result:
[8.26, 7.38, "5.00 to 6.00", "> 7.00", "≤ 4.40", "7.00 to 8.00", "≤ 4.40"]

Parameter requested: pIC50. Apply to each item below.
1. O=C(Nc1ccc(-n2cncn2)c(F)c1)c1ccc(C(=O)Nc2ccccc2-n2cccn2)s1
2. CN(C)CC(=O)N1CCC(n2cc(Nc3ncc4cc(C#N)c(=O)n(C5CCCC5)c4n3)cn2)CC1

Result:
≤ 4.40
6.81

Parameter requested: pIC50. Apply to each item below.
1. Cc1cc(OCCO)ccc1NC(=O)c1ccc(C(=O)Nc2ccc(-n3cncn3)cc2)s1
2. O=C(Nc1ccc(-n2cncn2)cc1)c1ccc(C(=O)N2CCCCC2)s1

Result:
["≥ 6.00", "≤ 4.40"]

* * *

Assay read-out IC50 on Cyclin-dependent kinase 2 (Homo sapiens); records merged from the literature.

Some entries whose results are on file:
[
  {
    "smiles-code": "O=C(NCCc1c[nH]cn1)c1ccc(C(=O)Nc2ccc(-n3cncn3)cc2)s1",
    "IC50": "≥ 40 µM"
  },
  {
    "smiles-code": "NS(=O)(=O)c1ccc(Nc2nc(Nc3ccccc3)nc3[nH]ncc23)cc1",
    "IC50": "1.11 µM"
  },
  {
    "smiles-code": "O=C(NCCc1cccnc1)c1ccc(C(=O)Nc2ccc(-n3cncn3)cc2)s1",
    "IC50": "1 to 40 µM"
  },
  {
    "smiles-code": "NS(=O)(=O)c1ccc(NC=C2C(=O)Nc3ncccc32)cc1",
    "IC50": "0.1 to 1 µM"
  }
]

Read the next record carefully.
Request: Cyclin-dependent kinase 2 (Homo sapiens) / IC50 / CCCCN(C)C(=O)c1ccc(C(=O)Nc2ccc(-n3cncn3)cc2)s1 : value?
Result: ≥ 40 µM
